assayed_system: Excitatory amino acid transporter 2 (Homo sapiens, UniProt P43004)
measurement_protocol: Inhibitory concentration against glutamate uptake in HEK cells expressing human Excitatory amino acid transporter 2
Type: cell-based, HEK293
# note: boundary value 200 nM maps to rule not met; IC50 below it maps to rule met

Below are worked cases with known answers.
[[record]]
molecule = "N[C@@H](CC(=O)Nc1ccc(-c2ccc3ccccc3c2)cc1)C(=O)O"
label = "rule not met"

[[record]]
molecule = "NC(CC(=O)Nc1ccc(-c2ccccc2)cc1)C(=O)O (stereo not given)"
label = "rule not met"

[[record]]
molecule = "N[C@@H](CC(=O)Nc1ccc2c(c1)Cc1c(Cl)cc(Cl)cc1-2)C(=O)O"
label = "rule not met"

[[record]]
molecule = "Cc1ccc(NC(=O)CC(N)C(=O)O)cc1-c1ccc(F)c(Cl)c1 (stereo not given)"
label = "rule not met"

[[record]]
molecule = "Cc1cc(NC(=O)C[C@H](N)C(=O)O)ccc1-c1ccc(C(F)(F)F)cc1"
label = "rule not met"


Below 200 nM on IC50? Entry N[C@@H](CC(=O)Nc1ccc(Oc2ccc(F)c(F)c2)cc1)C(=O)O
rule met

Cc1ccccc1-c1ccc(NC(=O)C[C@H](N)C(=O)O)cc1 ?
rule met

N[C@@H](CC(=O)Nc1ccc(-c2cccc(C(F)(F)F)c2)cc1)C(=O)O ?
rule met

###

assayed_system: Excitatory amino acid transporter 2 (Homo sapiens)
measurement_protocol: Inhibitory concentration against glutamate uptake in oocytes expressing in human Excitatory amino acid transporter 2
Type: cell-based, Oocyte
observed_property: pIC50
Numbers only, as −log10 of the molar value.

Name the recorded pIC50 for N[C@@H](CC(=O)Nc1ccc(Oc2cc(F)c(F)cc2Br)cc1)C(=O)O .
6.89

###

assayed_system: UniProt:P43004
measurement_protocol: Inhibitory concentration against glutamate uptake in MDCK cells expressing in human Excitatory amino acid transporter 2
Type: cell-based
observed_property: IC50

Name the recorded IC50 for N[C@@H](CC(=O)Nc1ccc(-c2cccc(C(F)(F)F)c2)cc1)C(=O)O .
≤ 10 nM

###

assayed_system: UniProtKB P43004
measurement_protocol: Inhibitory concentration against glutamate uptake in HEK cells expressing human Excitatory amino acid transporter 2
Format: cell-based, HEK293
observed_property: pIC50
Answers are plain numbers, as −log10 of the molar value.

Consider the worked cases shown below.
[[record]]
compound = "N[C@@H](CC(=O)Nc1ccc2c(c1)Cc1cc(F)ccc1-2)C(=O)O"
assayed_system = "UniProtKB P43004"
observed_measurement = 7.10

[[record]]
compound = "Cc1cc(NC(=O)C[C@H](N)C(=O)O)ccc1-c1ccc(Cl)c(Cl)c1"
assayed_system = "UniProtKB P43004"
observed_measurement = 7.00

[[record]]
compound = "Cc1cc(NC(=O)C[C@H](N)C(=O)O)ccc1-c1cccc(C(F)(F)F)c1"
assayed_system = "UniProtKB P43004"
observed_measurement = 7.00


Hey, quick one: what's pIC50 for each of these?
1. N[C@@H](CC(=O)Nc1ccc2c(c1)C(=O)c1ccccc1-2)C(=O)O
2. N[C@@H](CC(=O)Nc1ccc2c(c1)Cc1cc(Br)ccc1-2)C(=O)O
3. Cc1cc(-c2ccccc2)ccc1NC(=O)CC(N)C(=O)O (stereo unspecified)

1. 4.89
2. 6.70
3. 6.70

###

assayed_system: Excitatory amino acid transporter 3 (Homo sapiens)
Sequence (P43005 whole entry): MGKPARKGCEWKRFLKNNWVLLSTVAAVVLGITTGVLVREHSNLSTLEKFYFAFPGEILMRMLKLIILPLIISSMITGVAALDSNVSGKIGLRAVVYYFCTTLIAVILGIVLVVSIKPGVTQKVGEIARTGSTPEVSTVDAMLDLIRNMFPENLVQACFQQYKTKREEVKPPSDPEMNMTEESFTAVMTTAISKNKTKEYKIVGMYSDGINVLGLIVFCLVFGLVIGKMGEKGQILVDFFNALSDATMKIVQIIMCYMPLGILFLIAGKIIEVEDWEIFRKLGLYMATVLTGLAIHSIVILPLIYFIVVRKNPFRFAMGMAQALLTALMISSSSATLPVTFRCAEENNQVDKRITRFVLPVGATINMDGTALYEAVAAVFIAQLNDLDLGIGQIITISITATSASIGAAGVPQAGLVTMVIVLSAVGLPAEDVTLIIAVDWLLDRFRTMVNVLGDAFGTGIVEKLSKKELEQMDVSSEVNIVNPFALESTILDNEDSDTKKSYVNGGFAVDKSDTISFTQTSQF
measurement_protocol: Inhibitory concentration against glutamate uptake in HEK cells expressing human Excitatory amino acid transporter 3
pIC50: −log10 of the molar value.
Decide by pIC50: equal to or exceeding 6 means class 1, less means class 0.

Below are worked cases with known answers.
[[record]]
cpd_smiles = "N[C@@H](CC(=O)Nc1ccc(Oc2ccc(F)c(F)c2)cc1)C(=O)O"
assayed_system = "Excitatory amino acid transporter 3 (Homo sapiens)"
label = "class 0"

[[record]]
cpd_smiles = "N[C@@H](CC(=O)Nc1ccc(-c2ccc(F)c(Cl)c2)c(C(F)(F)F)c1)C(=O)O"
assayed_system = "Excitatory amino acid transporter 3 (Homo sapiens)"
label = "class 1"

[[record]]
cpd_smiles = "N[C@@H](CC(=O)Nc1ccc2oc3cc(F)c(F)cc3c2c1)C(=O)O"
assayed_system = "Excitatory amino acid transporter 3 (Homo sapiens)"
label = "class 0"

[[record]]
cpd_smiles = "N[C@@H](CC(=O)Nc1ccc2c(c1)C(=O)c1ccccc1-2)C(=O)O"
assayed_system = "Excitatory amino acid transporter 3 (Homo sapiens)"
label = "class 0"

[[record]]
cpd_smiles = "N[C@@H](CC(=O)Nc1ccc2c(c1)Cc1cc(C(F)(F)F)ccc1-2)C(=O)O"
assayed_system = "Excitatory amino acid transporter 3 (Homo sapiens)"
label = "class 0"

[[record]]
cpd_smiles = "N[C@@H](CC(=O)Nc1ccc2c(c1)Cc1ccccc1-2)C(=O)O"
assayed_system = "Excitatory amino acid transporter 3 (Homo sapiens)"
label = "class 1"


Below: the item to evaluate.
Please tell me: is the compound CCc1cc(-c2ccc(F)c(Cl)c2)ccc1NC(=O)C[C@H](N)C(=O)O at or over 6 in terms of pIC50?
class 1

Data provenance: ChEMBL document CHEMBL1143635
